Value source: patent US20260265238A1

- TESTED_TARGET: SMARCA2-HiBiT HeLa cells (protein which is expressed from the SMARCA2 gene) (Homo sapiens)
- Construct: protein which is expressed from the SMARCA2 and SMARCA4 genes; host or cells: HeLa (SMARCA2-HiBiT engineered line)
- Sequence (P51531 whole entry): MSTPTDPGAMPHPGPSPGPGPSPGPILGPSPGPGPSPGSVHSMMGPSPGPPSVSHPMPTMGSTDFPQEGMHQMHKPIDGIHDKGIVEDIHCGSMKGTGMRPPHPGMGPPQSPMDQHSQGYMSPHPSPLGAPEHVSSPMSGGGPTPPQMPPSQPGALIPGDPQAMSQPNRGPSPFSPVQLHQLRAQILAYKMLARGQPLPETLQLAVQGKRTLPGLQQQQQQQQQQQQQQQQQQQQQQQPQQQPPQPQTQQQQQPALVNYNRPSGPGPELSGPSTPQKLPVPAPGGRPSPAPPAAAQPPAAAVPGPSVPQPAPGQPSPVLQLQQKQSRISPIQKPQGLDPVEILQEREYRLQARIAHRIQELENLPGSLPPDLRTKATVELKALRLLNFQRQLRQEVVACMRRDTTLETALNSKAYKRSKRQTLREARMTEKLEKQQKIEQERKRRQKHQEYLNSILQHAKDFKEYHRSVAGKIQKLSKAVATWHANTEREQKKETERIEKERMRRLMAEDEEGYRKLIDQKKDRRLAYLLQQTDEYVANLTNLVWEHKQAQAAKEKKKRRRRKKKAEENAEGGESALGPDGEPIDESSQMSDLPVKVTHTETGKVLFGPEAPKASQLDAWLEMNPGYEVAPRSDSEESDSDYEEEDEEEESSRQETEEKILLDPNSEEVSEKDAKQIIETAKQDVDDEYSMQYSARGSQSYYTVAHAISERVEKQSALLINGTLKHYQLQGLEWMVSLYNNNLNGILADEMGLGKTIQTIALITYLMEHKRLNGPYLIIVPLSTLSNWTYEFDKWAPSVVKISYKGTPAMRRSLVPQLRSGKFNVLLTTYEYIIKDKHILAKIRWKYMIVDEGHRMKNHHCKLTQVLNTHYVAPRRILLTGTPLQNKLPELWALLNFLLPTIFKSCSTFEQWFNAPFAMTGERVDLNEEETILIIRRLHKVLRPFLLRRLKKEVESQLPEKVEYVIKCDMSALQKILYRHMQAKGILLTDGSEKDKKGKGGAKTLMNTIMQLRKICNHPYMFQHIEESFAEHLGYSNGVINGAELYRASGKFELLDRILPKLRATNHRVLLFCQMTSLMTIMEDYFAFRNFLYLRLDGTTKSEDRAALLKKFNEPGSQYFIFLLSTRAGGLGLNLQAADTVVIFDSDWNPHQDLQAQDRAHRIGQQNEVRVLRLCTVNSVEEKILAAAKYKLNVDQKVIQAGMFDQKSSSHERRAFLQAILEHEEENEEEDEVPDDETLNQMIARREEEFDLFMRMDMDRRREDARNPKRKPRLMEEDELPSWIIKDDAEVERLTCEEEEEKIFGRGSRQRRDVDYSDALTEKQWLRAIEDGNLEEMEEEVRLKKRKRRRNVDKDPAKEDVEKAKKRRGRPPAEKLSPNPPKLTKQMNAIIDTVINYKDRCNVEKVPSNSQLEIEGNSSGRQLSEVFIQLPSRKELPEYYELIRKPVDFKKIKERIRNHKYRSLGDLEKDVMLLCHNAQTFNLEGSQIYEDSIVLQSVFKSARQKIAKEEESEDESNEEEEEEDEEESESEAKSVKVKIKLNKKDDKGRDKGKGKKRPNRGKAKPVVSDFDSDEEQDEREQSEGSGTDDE
- EXPERIMENT: SMARCA2 degradation assay (HiBiT-fusion HeLa cell line, 24 h, luminescence)
- Type: cell-based
- EXPERIMENTAL_CONDITIONS: @ 1 μM
RESULT_TYPE: SMARCA2 % Degradation @ 1 μM

| MOLECULE | REPORTED_MEASUREMENT |
| --- | --- |
| Cn1ccc(NCC#Cc2nccc(N3CC4CCC(C3)N4c3cc(-c4ccccc4O)nnc3N)n2)n1 [Compound P-130] | +++ (+++=>70%) |
| C[C@H]1CCN1CC#Cc1nccc(N2CCCN(c3cc(-c4ccccc4O)nnc3N)CC2)n1 [Compound P-279] | +++ (+++=>70%) |
| CC(C)[C@@H]1COCCN1CC#Cc1nccc(N2CCN(c3cc(-c4ccccc4O)nnc3N)CC[C@H]2C)n1 [Compound P-262] | +++ (+++=>70%) |
